Biological target: T1, recombinant human LAG3 expressed with a C-terminal mouse IgG2a mFc tag (human)
T1 construct: Called dimeric; also called hLAG3-mFc; hLAG3 dimer
T1 chain: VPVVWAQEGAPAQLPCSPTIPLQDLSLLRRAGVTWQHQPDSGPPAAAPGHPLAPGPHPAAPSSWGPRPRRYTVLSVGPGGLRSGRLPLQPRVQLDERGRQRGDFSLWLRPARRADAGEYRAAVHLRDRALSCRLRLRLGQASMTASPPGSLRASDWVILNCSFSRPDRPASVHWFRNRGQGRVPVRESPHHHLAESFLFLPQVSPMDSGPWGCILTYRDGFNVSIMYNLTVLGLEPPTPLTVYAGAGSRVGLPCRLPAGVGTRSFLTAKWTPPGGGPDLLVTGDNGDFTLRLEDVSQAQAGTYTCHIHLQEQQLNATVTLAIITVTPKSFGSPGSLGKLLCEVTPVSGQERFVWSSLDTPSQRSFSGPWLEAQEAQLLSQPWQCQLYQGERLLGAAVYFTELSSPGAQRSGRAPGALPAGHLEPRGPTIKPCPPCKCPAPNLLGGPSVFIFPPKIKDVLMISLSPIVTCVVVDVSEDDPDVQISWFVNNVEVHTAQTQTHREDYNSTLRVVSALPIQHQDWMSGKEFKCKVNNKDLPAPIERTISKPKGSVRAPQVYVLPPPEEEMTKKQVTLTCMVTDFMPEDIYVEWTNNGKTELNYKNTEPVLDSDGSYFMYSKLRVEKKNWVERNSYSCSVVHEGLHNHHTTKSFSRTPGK
Assay: SPR, mAb captured, 37 C
In this section we review reported kon values for a set of binders.
Provide only the numeric value, understood in M⁻¹ s⁻¹.

Sample answers from the record:
binder	kon [M⁻¹ s⁻¹]
H4H14813N (antibody, human IgG4, V domains shown, H4H = human IgG4 Fc with S108P hinge mutation) VH: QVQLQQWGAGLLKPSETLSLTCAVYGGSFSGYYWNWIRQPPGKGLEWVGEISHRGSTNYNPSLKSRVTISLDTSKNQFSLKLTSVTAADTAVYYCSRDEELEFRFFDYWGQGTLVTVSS VL: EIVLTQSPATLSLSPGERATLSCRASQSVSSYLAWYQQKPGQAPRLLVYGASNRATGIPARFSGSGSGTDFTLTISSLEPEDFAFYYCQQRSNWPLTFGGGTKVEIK	4.27e+06
H4sH15479P (antibody, V domains shown) VH: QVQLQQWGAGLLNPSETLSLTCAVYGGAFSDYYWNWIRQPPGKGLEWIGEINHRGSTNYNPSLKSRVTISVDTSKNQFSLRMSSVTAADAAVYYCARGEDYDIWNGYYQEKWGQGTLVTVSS VL: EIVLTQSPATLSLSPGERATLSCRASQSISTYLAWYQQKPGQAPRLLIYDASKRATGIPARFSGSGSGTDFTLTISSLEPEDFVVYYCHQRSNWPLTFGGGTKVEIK	2.92e+06
H4sH14813N (antibody, human IgG4 S228P, kappa, V domains shown, H4sH = modified human IgG4 Fc) VH: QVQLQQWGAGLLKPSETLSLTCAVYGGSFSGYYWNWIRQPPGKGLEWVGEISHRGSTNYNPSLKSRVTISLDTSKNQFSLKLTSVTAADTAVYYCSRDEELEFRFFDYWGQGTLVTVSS VL: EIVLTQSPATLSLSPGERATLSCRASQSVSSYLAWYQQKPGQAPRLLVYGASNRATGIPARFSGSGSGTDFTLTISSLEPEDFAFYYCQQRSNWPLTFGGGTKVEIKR	3.42e+06
H4H17823P (antibody, human IgG4, V domains shown, H4H = human IgG4 Fc with S108P hinge mutation) VH: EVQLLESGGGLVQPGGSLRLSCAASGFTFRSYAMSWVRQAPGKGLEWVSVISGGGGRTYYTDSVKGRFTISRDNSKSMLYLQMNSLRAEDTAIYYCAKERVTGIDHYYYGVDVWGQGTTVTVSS VL: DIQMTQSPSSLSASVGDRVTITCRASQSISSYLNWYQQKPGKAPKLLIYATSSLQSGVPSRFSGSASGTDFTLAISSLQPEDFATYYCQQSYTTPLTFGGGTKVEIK	1.34e+06
H4H17819P (antibody, human IgG4, V domains shown, H4H = human IgG4 Fc with S108P hinge mutation) VH: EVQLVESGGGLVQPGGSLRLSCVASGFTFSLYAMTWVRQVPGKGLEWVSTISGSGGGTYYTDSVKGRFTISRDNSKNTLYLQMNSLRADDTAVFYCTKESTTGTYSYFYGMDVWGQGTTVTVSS VL: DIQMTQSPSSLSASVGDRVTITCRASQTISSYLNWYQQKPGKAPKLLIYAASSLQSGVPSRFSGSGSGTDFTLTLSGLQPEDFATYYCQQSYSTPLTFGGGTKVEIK	1.66e+06

Please indicate kon recorded for H4H15483P (antibody, human IgG4, V domains shown, H4H = human IgG4 Fc with S108P hinge mutation) VH: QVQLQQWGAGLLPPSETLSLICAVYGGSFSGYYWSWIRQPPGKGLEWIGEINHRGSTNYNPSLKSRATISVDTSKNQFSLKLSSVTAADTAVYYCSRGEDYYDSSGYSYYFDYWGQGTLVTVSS VL: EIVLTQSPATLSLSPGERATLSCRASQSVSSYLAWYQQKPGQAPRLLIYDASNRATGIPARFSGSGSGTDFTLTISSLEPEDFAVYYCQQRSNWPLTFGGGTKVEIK
1.38e+06

Please indicate kon recorded for H4H15479P (antibody, human IgG4, V domains shown) VH: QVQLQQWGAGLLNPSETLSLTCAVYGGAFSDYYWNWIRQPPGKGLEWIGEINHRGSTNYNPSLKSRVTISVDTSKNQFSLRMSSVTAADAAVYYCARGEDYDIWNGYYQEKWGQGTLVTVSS VL: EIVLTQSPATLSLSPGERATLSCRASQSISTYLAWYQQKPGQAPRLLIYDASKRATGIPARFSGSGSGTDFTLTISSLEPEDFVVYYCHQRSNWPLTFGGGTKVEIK
2.5e+06
